Assay: compatibility of diquats with anionic surfactant in water
Type: physicochemical
Set-up: key: Cl. = Clear; Blu. = Bluish; Visc. = Viscous; Prec. = Precipitate; Turb. = Turbid
Conditions: mixture with Sodium Laureth Sulfate, 1 wt % total surfactant in water, ambient temperature, 90% diquat

given smiles | Compatibility observation, 90% of Diquat
CCCCCCCC[N+](C)(C)CCCN(CCC[N+](C)(C)CCCCCCCC)C(=O)CCCCCCC.[Br-].[Br-] | Cl.
CCCCCCCC(=O)N(CCC[N+](C)(C)C)CCC[N+](C)(C)C.[Cl-].[Cl-] | Cl.
CCCCCCCC(=O)N(CCC[N+](C)(C)Cc1ccccc1)CCC[N+](C)(C)Cc1ccccc1.[Br-].[Br-] | Prec.
CCCCCCCCCCCC(=O)N(CCC[N+](C)(C)C)CCC[N+](C)(C)C.[Cl-].[Cl-] | Cl.

----------
Assay: compatibility of diquats with anionic surfactant in water
Assay type: physicochemical
Set-up: key: Cl. = Clear; Blu. = Bluish; Visc. = Viscous; Prec. = Precipitate; Turb. = Turbid
Settings: mixture with Sodium Laureth Sulfate, 1 wt % total surfactant in water, ambient temperature, 60% diquat

given smiles | Compatibility observation, 60% of Diquat
CCCCCCCC(=O)N(CCC[N+](C)(C)C)CCC[N+](C)(C)C.[Cl-].[Cl-] | Cl.
CCCCCCCCCCCC(=O)N(CCC[N+](C)(C)C)CCC[N+](C)(C)C.[Cl-].[Cl-] | Cl.
CCCCCCCCCCCCCCCC(=O)N(CCC[N+](C)(C)C)CCC[N+](C)(C)C.[Cl-].[Cl-] | Cl.
CCCCCCCCCCCCCCCCCC(=O)N(CCC[N+](C)(C)C)CCC[N+](C)(C)C.[Cl-].[Cl-] | Cl.
CCCCCCCCCCCCCC(=O)N(CCC[N+](C)(C)C)CCC[N+](C)(C)C.[Cl-].[Cl-] | Cl.
CCCCCCCC[N+](C)(C)CCCN(CCC[N+](C)(C)CCCCCCCC)C(=O)CCCCCCC.[Br-].[Br-] | Turb.
CCCCCCCCCC(=O)N(CCC[N+](C)(C)C)CCC[N+](C)(C)C.[Cl-].[Cl-] | Cl.
CCCCCCCC(=O)N(CCC[N+](C)(C)Cc1ccccc1)CCC[N+](C)(C)Cc1ccccc1.[Br-].[Br-] | Prec.

----------
Test: compatibility of diquats with anionic surfactant in water
Format: physicochemical
Design: key: Cl. = Clear; Blu. = Bluish; Visc. = Viscous; Prec. = Precipitate; Turb. = Turbid
Conditions: mixture with Sodium Laureth Sulfate, 1 wt % total surfactant in water, ambient temperature, 50% diquat

given smiles | Compatibility observation, 50% of Diquat
CCCCCCCCCC(=O)N(CCC[N+](C)(C)C)CCC[N+](C)(C)C.[Cl-].[Cl-] | Turb.
CCCCCCCCCCCC(=O)N(CCC[N+](C)(C)C)CCC[N+](C)(C)C.[Cl-].[Cl-] | Cl.
CCCCCCCC(=O)N(CCC[N+](C)(C)C)CCC[N+](C)(C)C.[Cl-].[Cl-] | Cl.
CCCCCCCCCCCCCCCC(=O)N(CCC[N+](C)(C)C)CCC[N+](C)(C)C.[Cl-].[Cl-] | Cl.

----------
Experiment: compatibility of diquats with anionic surfactant in water
Type: physicochemical
Parameters: key: Cl. = Clear; Blu. = Bluish; Visc. = Viscous; Prec. = Precipitate; Turb. = Turbid
Details: mixture with Sodium Laureth Sulfate, 1 wt % total surfactant in water, ambient temperature, 70% diquat

given smiles | Compatibility observation, 70% of Diquat
CCCCCCCCCCCCCCCCCC(=O)N(CCC[N+](C)(C)C)CCC[N+](C)(C)C.[Cl-].[Cl-] | Cl.
CCCCCCCCCC(=O)N(CCC[N+](C)(C)C)CCC[N+](C)(C)C.[Cl-].[Cl-] | Cl.
CCCCCCCC(=O)N(CCC[N+](C)(C)Cc1ccccc1)CCC[N+](C)(C)Cc1ccccc1.[Br-].[Br-] | Prec.
CCCCCCCCCCCC(=O)N(CCC[N+](C)(C)C)CCC[N+](C)(C)C.[Cl-].[Cl-] | Cl.
CCCCCCCC(=O)N(CCC[N+](C)(C)C)CCC[N+](C)(C)C.[Cl-].[Cl-] | Cl.
CCCCCCCCCCCCCCCC(=O)N(CCC[N+](C)(C)C)CCC[N+](C)(C)C.[Cl-].[Cl-] | Cl.
CCCCCCCC[N+](C)(C)CCCN(CCC[N+](C)(C)CCCCCCCC)C(=O)CCCCCCC.[Br-].[Br-] | Turb.
CCCCCCCCCCCCCC(=O)N(CCC[N+](C)(C)C)CCC[N+](C)(C)C.[Cl-].[Cl-] | Cl.
